# tgt: TRPML1 (Homo sapiens, UniProt Q9GZU1)
# Sequence (Q9GZU1 whole entry L15A/L16A/L577A/L578A, form open): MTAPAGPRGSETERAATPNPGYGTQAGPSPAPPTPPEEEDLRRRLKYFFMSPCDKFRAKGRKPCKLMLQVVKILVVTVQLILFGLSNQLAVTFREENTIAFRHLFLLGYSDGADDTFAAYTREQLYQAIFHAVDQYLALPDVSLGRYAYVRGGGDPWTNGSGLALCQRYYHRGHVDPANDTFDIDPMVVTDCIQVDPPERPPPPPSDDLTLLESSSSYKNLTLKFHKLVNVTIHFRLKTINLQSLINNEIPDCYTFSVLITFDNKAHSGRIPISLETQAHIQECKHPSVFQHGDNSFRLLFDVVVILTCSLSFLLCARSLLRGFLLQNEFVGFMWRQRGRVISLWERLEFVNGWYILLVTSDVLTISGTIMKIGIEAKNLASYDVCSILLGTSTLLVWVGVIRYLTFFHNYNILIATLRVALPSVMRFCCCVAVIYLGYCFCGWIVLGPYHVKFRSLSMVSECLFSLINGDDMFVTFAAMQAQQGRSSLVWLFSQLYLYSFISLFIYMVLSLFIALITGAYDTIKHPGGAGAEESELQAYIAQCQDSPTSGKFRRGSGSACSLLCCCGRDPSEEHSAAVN
# procedure summary: Fluorescent TRPML1 assay (Fluo4-AM calcium fluorescence in doxycycline-induced HEK-293 Trex cells)
# Format: cell-based
# condition: fluorescent calcium assay
measured endpoint: EC50

CC1CN(C(=O)OC(C)(C)C)CCN1c1nccc2c1c(-c1ccccn1)cn2-c1cccc(Cl)c1 (stereo not shown)	100 to 500 nM
C[C@H]1CN(C(=O)OC(C)(C)C)CCN1c1ncnc2c1c(C1CCC1)cn2-c1cc(C#N)ccn1	< 100 nM
CCOC(=O)N1CCN(c2ncnc3c2c(-c2ccccc2F)cn3-c2cc(C#N)ccn2)[C@@H](C)C1	< 100 nM

Now for a further molecule.
Q: Kindly indicate its recorded EC50. Item: C[C@H]1CN(C(=O)OC(C)(C)C)CCN1c1ncnc2c1c(-c1cnccn1)cn2-c1cccc(Cl)c1
Ans: 100 to 500 nM

====

Listing of entries alongside the reported EC50.
# tgt: TRPML1 (Homo sapiens)
# procedure summary: Fluorescent TRPML1 assay (Fluo4-AM calcium fluorescence in doxycycline-induced HEK-293 Trex cells)
# Type: cell-based
# condition: fluorescent calcium assay

Answered cases to consult:
C[C@@H]1CN(c2ncnc3c2c(-c2cccnc2)cn3-c2cc(F)cc(F)c2)CCN1C(=O)OC(C)(C)C	100 to 500 nM
C[C@H]1CN(C(=O)OC(C)(C)C)CCN1c1ncnc2c1c(C1CC1)cn2-c1cc(C#N)n(C)c1	< 100 nM
Cc1nccnc1-c1cn(-c2cc(C#N)ccn2)c2ncnc(N3CCN(C(=O)OC(C)(C)C)C[C@@H]3C)c12	500 to 2000 nM
C[C@H]1CN(C(=O)OC(C)(C)C(F)(F)F)CCN1c1ncnc2c1c(C1CC1)cn2-c1cccc(C#N)c1	< 100 nM
C[C@@H]1CN(c2ncnc3c2c(-c2ccccc2F)cn3-c2cnn(C)c2)[C@@H](C)CN1C(=O)OC(C)(C)C	100 to 500 nM
C[C@H]1CN(c2ncnc3c2c(C2CC2)nn3-c2cc(F)cc(F)c2)CCN1C(=O)OC(C)(C)C	100 to 500 nM

Now for a further compound.
Q: Kindly indicate its recorded EC50. Item: C[C@@H]1CN(c2ncnc3c2c(N(C)C)cn3-c2cccc(Cl)c2)CCN1C(=O)OC(C)(C)C
Ans: < 100 nM

====

# tgt: TRPML2 (Homo sapiens)
# Construct: expressed in transfected cells
# Sequence (Q8IZK6 1-566): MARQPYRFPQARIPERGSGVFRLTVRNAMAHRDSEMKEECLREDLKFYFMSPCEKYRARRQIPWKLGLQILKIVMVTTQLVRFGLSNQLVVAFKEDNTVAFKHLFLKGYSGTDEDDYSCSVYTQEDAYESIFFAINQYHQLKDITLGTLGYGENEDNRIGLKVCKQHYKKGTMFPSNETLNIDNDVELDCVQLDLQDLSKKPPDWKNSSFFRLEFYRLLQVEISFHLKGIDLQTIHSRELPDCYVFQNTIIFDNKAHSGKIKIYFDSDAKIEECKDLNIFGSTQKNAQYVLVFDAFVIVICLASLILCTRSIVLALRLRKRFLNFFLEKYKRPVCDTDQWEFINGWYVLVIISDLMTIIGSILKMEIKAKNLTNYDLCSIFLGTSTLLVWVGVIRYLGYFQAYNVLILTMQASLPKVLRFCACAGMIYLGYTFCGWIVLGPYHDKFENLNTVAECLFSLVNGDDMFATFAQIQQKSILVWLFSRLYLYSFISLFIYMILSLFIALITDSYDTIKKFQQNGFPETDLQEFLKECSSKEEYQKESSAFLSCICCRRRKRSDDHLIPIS
# procedure summary: Fluorescent TRPML2 assay (performed as for TRPML1, substituting the TRPML2 subtype)
# Assay type: cell-based
# condition: fluorescent calcium assay
Listing of entries alongside the reported EC50.

Answered cases to consult:
CCN(CC)c1cn(-c2cc(C#N)ccn2)c2ncnc(N3CCN(C(=O)OC(C)(C)C)CC3)c12	> 2000 nM
C[C@@H]1CN(c2ncnc3c2c(C2CC2)cn3-c2cc(C#N)ccn2)CCN1C(=O)OCC(F)(F)F	100 to 500 nM

Q: Lab note: record EC50 of C[C@@H]1CN(c2cn(-c3cccc(C#N)c3)c3ncnc(N4CCN(C(=O)OC(C)(C)C)C[C@@H]4C)c23)CCO1 tested on TRPML2 (Homo sapiens).
Ans: 500 to 2000 nM

Q: Lab note: record EC50 of C[C@H]1CN(C(=O)OC(C)(C)C)CCN1c1ncnc2c1c(N1CCOCC1)cn2-c1cccc(C#N)c1 tested on TRPML2 (Homo sapiens).
Ans: 500 to 2000 nM

Q: Lab note: record EC50 of CC(C)(C)OC(=O)N1CCN(c2ncnc3c2c(C2CC2)cn3-c2cc(F)cc(F)c2)C[C@H]1C(F)F (single isomer, unassigned) tested on TRPML2 (Homo sapiens).
Ans: > 2000 nM

Q: Lab note: record EC50 of C[C@H]1CN(C(=O)OC(C)(C)C)CCN1c1ncnc2c1c(N1CCCCC1)cn2-c1cccc(Cl)c1 tested on TRPML2 (Homo sapiens).
Ans: < 100 nM

Q: Lab note: record EC50 of C[C@H]1CN(C(=O)OC(C)(C)C)CCN1c1ncnc2c1c(-c1cccnc1)cn2-c1cccc(F)c1 tested on TRPML2 (Homo sapiens).
Ans: 500 to 2000 nM

====

Listing of entries alongside the reported EC50.
# tgt: TRPML2 (Homo sapiens, UniProt Q8IZK6)
# Construct: expressed in transfected cells
# procedure summary: Fluorescent TRPML2 assay (performed as for TRPML1, substituting the TRPML2 subtype)
# Type: cell-based
# condition: fluorescent calcium assay

Answered cases to consult:
C[C@@H]1CN(c2ncnc3c2c(-c2ccccc2F)cn3-c2ccccn2)CCN1C(=O)OC(C)(C)C [Compound 192]	100 to 500 nM
COc1cccc(-n2cc(-c3cccnc3)c3c(N4CCN(C(=O)OC(C)(C)C)C[C@@H]4C)ncnc32)c1 [Compound 272]	500 to 2000 nM
C[C@@H]1CN(c2ncnc3c2c(N2CCC2)cn3-c2cc(C#N)ccn2)CCN1C(=O)OC(C)(C)C [Compound 388]	< 100 nM

Q: Kindly indicate its recorded EC50. Item: C[C@H]1CN(C(=O)OC(C)(C)C)CCN1c1ncnc2c1c(C1(C)CC1)cn2-c1cccc(C#N)c1 [Compound 402]
Ans: 500 to 2000 nM

====

# tgt: TRPML1 (Homo sapiens, UniProt Q9GZU1)
# procedure summary: Fluorescent TRPML1 assay (Fluo4-AM calcium fluorescence in doxycycline-induced HEK-293 Trex cells)
# Assay type: cell-based
pEC50: −log10 of the molar value.
Listing of entries alongside the reported pEC50.

CCc1ccnc(-n2cc(C(F)(F)F)c3c(N4C[C@@H](C)N(C(=O)OC(C)(C)C)C[C@@H]4C)ncnc32)c1	6.30 to 7.00

Q: Kindly indicate its recorded pEC50. Item: C[C@@H]1CN(c2ncnc3c2c(C(F)(F)F)cn3-c2cccc(C#N)c2)[C@@H](C)CN1C(=O)OC(C)(C)C
Ans: > 7.00

Q: Kindly indicate its recorded pEC50. Item: C[C@H]1CN(C(=O)OC(C)(C)C)CCN1c1nccc2c1c(N1CCC1)cn2-c1cccc(F)c1
Ans: > 7.00

Q: Kindly indicate its recorded pEC50. Item: C[C@@H]1CN(c2ncnc3c2c(C(F)(F)F)cn3[C@@H]2CCCC(F)(F)C2)[C@@H](C)CN1C(=O)OC(C)(C)C (single isomer, unassigned)
Ans: 6.30 to 7.00

Q: Kindly indicate its recorded pEC50. Item: C[C@@H]1CN(c2ncnc3c2c(C(F)(F)F)cn3-c2cc(C#N)ccn2)[C@@H](C)CN1C(=O)OC1(C(F)(F)F)CCC1
Ans: > 7.00

Q: Kindly indicate its recorded pEC50. Item: Cc1cn(-c2cc(F)cc(Cl)c2)c2ncnc(N3CCN(C(=O)OC(C)(C)C)C[C@@H]3C)c12
Ans: > 7.00

====

# tgt: TRPML3 (Homo sapiens)
# Construct: expressed in transfected cells
# Sequence (Q8TDD5 whole entry): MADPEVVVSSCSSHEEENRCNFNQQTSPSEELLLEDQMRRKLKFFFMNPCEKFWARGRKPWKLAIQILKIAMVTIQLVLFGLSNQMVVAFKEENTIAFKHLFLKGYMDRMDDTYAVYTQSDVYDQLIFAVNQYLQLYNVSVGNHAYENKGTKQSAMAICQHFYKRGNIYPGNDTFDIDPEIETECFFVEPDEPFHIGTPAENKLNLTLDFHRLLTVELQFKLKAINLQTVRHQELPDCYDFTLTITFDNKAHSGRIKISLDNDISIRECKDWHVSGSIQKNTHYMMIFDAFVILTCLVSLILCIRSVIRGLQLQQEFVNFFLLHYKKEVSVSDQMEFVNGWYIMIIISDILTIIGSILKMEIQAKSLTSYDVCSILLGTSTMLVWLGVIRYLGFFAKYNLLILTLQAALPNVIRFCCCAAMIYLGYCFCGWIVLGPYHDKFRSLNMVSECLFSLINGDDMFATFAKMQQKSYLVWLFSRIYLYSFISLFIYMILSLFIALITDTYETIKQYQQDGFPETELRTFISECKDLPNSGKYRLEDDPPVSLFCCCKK
# procedure summary: Fluorescent TRPML3 assay (performed as for TRPML1, substituting the TRPML3 subtype)
# Assay type: cell-based
pEC50: −log10 of the molar value.
measured endpoint: pEC50

Answered cases to consult:
C[C@@H]1CN(c2ncnc3c2c(C(F)(F)F)cn3[C@H]2CCCC(F)(F)C2)[C@@H](C)CN1C(=O)OC(C)(C)C (single isomer, unassigned)	6.30 to 7.00
C[C@@H]1CN(c2ncnc3c2c(C(F)(F)F)cn3[C@@H]2CCCOC2)[C@@H](C)CN1C(=O)OC(C)(C)C	< 5.70
C[C@@H]1CN(c2ncnc3c2c(C(C)(C)C)cn3-c2cc(C#N)ncn2)[C@@H](C)CN1C(=O)OC(C)(C)C	> 7.00
C[C@@H]1CN(c2ncnc3c2c(-c2ccccc2F)cn3-c2cc(C(F)(F)F)ccn2)[C@@H](C)CN1C(=O)OC1(C)CC1	> 7.00
CC(C)(C)OC(=O)N1CCN(c2ncnc3c2c(N2CCCC2)cn3-c2cc(C#N)ccn2)C(C)(C)C1	> 7.00

Q: Kindly indicate its recorded pEC50. Item: Cc1cn(-c2cc(C(F)(F)F)ccn2)c2ccnc(N3C[C@@H](C)N(C(=O)OC(C)(C)C)C[C@@H]3C)c12
Ans: 5.70 to 6.30

Q: Kindly indicate its recorded pEC50. Item: C[C@@H]1CN(c2ncnc3c2c(C2CC2)cn3-c2cc(F)cc(F)c2)[C@@H](C)CN1C(=O)OC1(C)CC1
Ans: 6.30 to 7.00

Q: Kindly indicate its recorded pEC50. Item: Cc1cn(-c2cc(F)ccn2)c2ccnc(N3C[C@@H](C)N(C(=O)OC(C)(C)C)C[C@@H]3C)c12
Ans: 6.30 to 7.00

Q: Kindly indicate its recorded pEC50. Item: C[C@H]1CN(C(=O)OC(C)(C)C)CCN1c1ncnc2c1c(-c1ccccc1F)cn2-c1cc(C(F)(F)F)ccn1
Ans: > 7.00

Q: Kindly indicate its recorded pEC50. Item: C[C@H]1CN(C(=O)OC(C)(C)C)CCN1c1ncnc2c1c(N1CCC1)cn2-c1cccc(F)c1
Ans: > 7.00

Q: Kindly indicate its recorded pEC50. Item: C[C@@H]1CN(c2ncnc3c2c(C(F)F)cn3-c2cc(C#N)ccn2)[C@@H](C)CN1C(=O)OC(C)(C)C
Ans: > 7.00

Q: Kindly indicate its recorded pEC50. Item: C[C@@H]1CN(c2ncnc3c2c(C(F)(F)F)cn3-c2cc(C#N)ccn2)[C@@H](C)CN1C(=O)OC1(C)CC1
Ans: > 7.00

Q: Kindly indicate its recorded pEC50. Item: Cc1cn(-c2cc(C(F)(F)F)ccn2)c2ncnc(N3C[C@@H](C)N(C(=O)OC(C)(C)C)C[C@@H]3C)c12
Ans: > 7.00

Q: Kindly indicate its recorded pEC50. Item: C[C@@H]1CN(c2ncnc3c2c(C(F)(F)F)cn3-c2cc(F)ccn2)[C@@H](C)CN1C(=O)OC(C)(C)C
Ans: > 7.00

Q: Kindly indicate its recorded pEC50. Item: C[C@@H]1CN(c2ncnc3c2c(C2CC2)cn3-c2ccccn2)[C@@H](C)CN1C(=O)OC(C)(C)C
Ans: 6.30 to 7.00

Q: Kindly indicate its recorded pEC50. Item: Cc1cn(-c2cncc(F)c2)c2ncnc(N3CCN(C(=O)OC(C)(C)C)C[C@@H]3C)c12
Ans: 6.30 to 7.00

Q: Kindly indicate its recorded pEC50. Item: C[C@H]1CN(C(=O)OC(C)(C)C)CCN1c1ncnc2c1c(N(C)C1CC1)cn2-c1cccc(Cl)c1
Ans: > 7.00

Q: Kindly indicate its recorded pEC50. Item: C[C@@H]1CN(c2ncnc3c2c(N2CC4(COC4)C2)cn3-c2cc(C#N)ccn2)[C@@H](C)CN1C(=O)OC(C)(C)C
Ans: > 7.00

Q: Kindly indicate its recorded pEC50. Item: C[C@@H]1CN(c2ncnc3c2c(C2CC2)cn3-c2cccc(Cl)c2)[C@@H](C)CN1C(=O)OC1(C)CC1
Ans: > 7.00

Q: Kindly indicate its recorded pEC50. Item: CCC(CC)OC(=O)N1C[C@H](C)N(c2ncnc3c2c(C(F)(F)F)cn3-c2cc(C#N)ccn2)C[C@H]1C
Ans: > 7.00
